Test system: p3TPLux in 6F mink lung cells
protocol.summary: antagonism of p3TPLux activation in 6F mink lung cells
Type: cell-based
condition.set: metal ion concentration inhibiting 50% of the activation of p3TPLux by 1a ([1a] = 3 μM) in 6F mink lung cells; read-out: EC50SU 1a
assay.metric: pEC50
Scale explanation: pEC50 corresponds to minus log10 of a concentration expressed in moles per litre.

These solved cases illustrate the format of a correct answer.
1. [Cl][Al]([Cl])[Cl]; 6.00
2. [Cl-].[Cl-].[Zn+2]; 6.30
3. [Cl][Fe]([Cl])[Cl]; 5.70

Inquiry: For the compound O.O.O.O.[Cl][Mn][Cl] , give its measured pEC50 value.
Reply text: 3.70

Inquiry: For the compound [Cl-].[Cl-].[Co+2] , give its measured pEC50 value.
Reply text: 5.00

Inquiry: For the compound O.O.O.O.O.O.O=S(=O)([O-])[O-].[Ni+2] , give its measured pEC50 value.
Reply text: 5.00

###

protocol.summary: UV spectral shift binding assay with 1a
condition.set: metal ion concentration inducing a 50% shift in λmax of UV shoulder of 1a ([1a] = 15 μM) from 292 nm to 273 nm; estimate of dissociation constant; read-out: EC50UV 1a
assay.metric: EC50

These solved cases illustrate the format of a correct answer.
1. CC(=O)[O-].CC(=O)[O-].[Ba+2] [Ba^2+, Ba(OAc)2]; > 1000 µM
2. [Cl][Fe]([Cl])[Cl] [Fe^3+, FeCl3]; < 7.5 µM
3. O.O.O.O.[Cl][Mn][Cl] [Mn^2+, MnC12.4H2O]; 80 µM
4. [Cl-].[Cl-].[Zn+2] [Zn^2+, ZnCl2]; < 7.5 µM
5. [Ca+2].[Cl-].[Cl-] [Ca^2+, CaCl2.2H2O]; > 1000 µM

Inquiry: For the compound [Cl-].[Na+] [Na^+, NaCl] , give its measured EC50 value.
Reply text: > 1000 µM

Inquiry: For the compound [Cl][Al]([Cl])[Cl] [Al^3+, A1C13] , give its measured EC50 value.
Reply text: 30 µM

Inquiry: For the compound [Cl-].[Cl-].[Co+2] [Co^2+, CoCl2.6H2O] , give its measured EC50 value.
Reply text: 100 µM

###

protocol.summary: UV spectral shift binding assay with 2
condition.set: metal ion concentration inducing a 50% shift in λmax of UV shoulder of 2 from 297 nm to 310 nm ([2] = 20 μM); read-out: EC50UV 2
pEC50: −log10 of the molar value.
assay.metric: pEC50

1. [Cl-].[Cl-].[Mg+2] [Mg^2+, MgCl2]; < 3.00
2. [Cl-].[K+] [K^+, KCl]; < 3.00
3. O.O.O.O.O.O.O=S(=O)([O-])[O-].[Ni+2] [Ni^2+, NiSO4.6H2O]; 3.30

Inquiry: For the compound O.O.O.O.[Cl][Mn][Cl] [Mn^2+, MnC12.4H2O] , give its measured pEC50 value.
Reply text: < 3.00

Inquiry: For the compound [Cl][Fe]([Cl])[Cl] [Fe^3+, FeCl3] , give its measured pEC50 value.
Reply text: > 5.00

Inquiry: For the compound [Cl][Al]([Cl])[Cl] [Al^3+, A1C13] , give its measured pEC50 value.
Reply text: 3.70
